The origin of these recorded values is the Human Domainome abundance scans (Beltran et al. 2025).

B1: Cytoplasmic polyadenylation element-binding protein 2, residues 513 to 575; numbered along this chain, Q7Z5Q1 (parent)
chain: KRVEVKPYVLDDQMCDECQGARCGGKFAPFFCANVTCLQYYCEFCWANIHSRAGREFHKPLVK

Variants of: B1
Protocol details: abundance fitness (aPCA) (normalised: wild type 0, dead -1); higher = more abundant; growth selection in yeast, the domain comes from the species named
Condition parameters: Homo sapiens
Rule: abundance fitness of -0.4 or more gives y; anything lower gives n.

>  <Var>
C42T

>  <Qualitative label>
n

$$$$
>  <Var>
C37Q

>  <Qualitative label>
n

$$$$
>  <Var>
G24H

>  <Qualitative label>
y

$$$$
>  <Var>
E4A

>  <Qualitative label>
y

$$$$
>  <Var>
K63S

>  <Qualitative label>
y

$$$$
>  <Var>
F31E

>  <Qualitative label>
y

$$$$
>  <Var>
K59Y

>  <Qualitative label>
y

$$$$
>  <Var>
R52W

>  <Qualitative label>
y

$$$$
>  <Var>
L38T

>  <Qualitative label>
y

$$$$
>  <Var>
M14S

>  <Qualitative label>
y

$$$$
>  <Var>
G25E

>  <Qualitative label>
y

$$$$
>  <Var>
V3C

>  <Qualitative label>
n

$$$$
>  <Var>
C15N

>  <Qualitative label>
n

$$$$
